Reference source: ChEMBL document CHEMBL3988442

biological target: Arginase-2, mitochondrial (Homo sapiens) (UniProt P78540); experiment: in vitro enzyme assay to detect the production of urea directly proportional to the activity of Arginase II; format: functional; parameters: scale not given: in the data most compounds retested in dose-response had high values; settings: 33.3 µM
Sequence (P78540 whole entry): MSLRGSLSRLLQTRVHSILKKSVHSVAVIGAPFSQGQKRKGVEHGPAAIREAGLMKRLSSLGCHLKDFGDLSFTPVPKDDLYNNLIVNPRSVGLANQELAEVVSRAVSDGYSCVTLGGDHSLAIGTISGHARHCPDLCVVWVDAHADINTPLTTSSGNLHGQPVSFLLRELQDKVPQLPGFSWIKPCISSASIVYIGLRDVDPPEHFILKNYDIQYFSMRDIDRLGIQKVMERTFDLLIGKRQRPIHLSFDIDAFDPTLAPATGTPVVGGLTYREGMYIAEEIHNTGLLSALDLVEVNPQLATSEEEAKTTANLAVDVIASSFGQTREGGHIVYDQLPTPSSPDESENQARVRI
Entries annotated with measured Percent Effect
Give the quantity in %, number only.

Past entries and their recorded results:
get_value(item= Cc1csc(Nc2cc(C3CCCCN3C)nc(C)n2)n1 (stereo unspecified) , readout=Percent Effect) returns 3.5

Percent Effect in this record for COCCN1CCCN(C(=O)NC(C)Cn2cccn2)CC1 (stereo unspecified) : 4.3

So, O=C(NCCOc1ccc2c(c1)OCO2)N1CCC1 ? Its Percent Effect was 5.94

Per the record, O=C(C1CCC1)N1CCn2c(COc3ncccn3)nnc2C1 has Percent Effect of -11.7

---
Item: CCN1Cc2c(C(=O)NCC3CC3)ncn2-c2ccccc2S1(=O)=O | Percent Effect: -0.399

Per the records, this compound ( COC1CC2(CCN(Cc3ccc4c(c3)OCO4)CC2)C1 ) has Percent Effect equal to 1.83

----------
Biological target: Proteasome subunit beta (Trypanosoma cruzi) (UniProt O96673)
Sequence (whole entry): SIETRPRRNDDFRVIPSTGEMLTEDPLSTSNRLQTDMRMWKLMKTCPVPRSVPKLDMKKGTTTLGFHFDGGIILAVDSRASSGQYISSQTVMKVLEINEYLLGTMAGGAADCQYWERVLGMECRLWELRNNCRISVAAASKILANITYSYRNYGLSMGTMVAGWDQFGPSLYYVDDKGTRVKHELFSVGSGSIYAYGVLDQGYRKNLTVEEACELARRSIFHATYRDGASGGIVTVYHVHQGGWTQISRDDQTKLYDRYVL
Test: Trypanosoma cruzi proteasome chymotrypsin-like activity (TcProtChymo) assay.
Format: functional
Design: scale not given: direction of the effect not stated beside the values
Conditions: 9.37 µM
readout-type: Percent Effect (%)
I only need the number, in %, no unit after it.

Known Percent Effect results, listed for orientation:
Looking up c1ccc(-n2ncc(CNC3CCc4ncnn4C3)n2)cc1 (configuration not stated) , I see its Percent Effect listed as 3.16

Recorded Percent Effect (molecule CCc1nc(CN2CCN(C(=O)COCc3ccccc3)CC2)no1 ): 10.7

So for Cc1cc2nc(SCC(=O)N3CCCC3)n(C(C)C)c(=O)c2[nH]1 , the logged Percent Effect turned out to be 19.5

Sample CCNC(=O)c1cnc(Cc2ccc(F)cc2)s1 ; Percent Effect observed: 8.72

Sample COc1cc(CNCc2ccc(C(C)O)cc2)cc2c1OCO2 (configuration not stated) ; Percent Effect observed: 20.8

***
Recorded result, CCn1nnc2c1C(COC)CN(Cc1cccs1)C2 (configuration not stated) , Percent Effect: 12.3

The molecule identified as CC(C)(C)OC(=O)NC(C)(C)c1noc(CN2CCCCC2)n1 registered its Percent Effect at 9.07

Percent Effect reading for CC(C)Cc1noc(CN(C)C(=O)C2COc3ccccc3C2)n1 (configuration not stated) : 14.3

// Percent Effect lookup, molecule = CCN(CC)C1CCN(C(=O)NCc2nncn2CC)CC1 , result: 12

response.value for Cc1ccn(CCC(=O)N2CCOC(c3nc(-c4cccs4)no3)C2)n1 (configuration not stated) (field: Percent Effect) = 8.7

Looking up COc1cc(CNCc2ccnc(N3CCOCC3)c2)cc(Cl)c1OC , I found its Percent Effect recorded as 3.78

Documented Percent Effect of CCOC(=O)CN1CCC(C(=O)c2cc(F)ccc2F)CC1 : 4.01

----------
target: Proteasome subunit beta (Trypanosoma cruzi); assay: Trypanosoma cruzi proteasome chymotrypsin-like activity (TcProtChymo) assay.; format: functional; parameters: scale not given: in the data most compounds retested in dose-response had high values; details: 9.37 µM
readout-type: Percent Effect (%)
Quick note: give the figure in %, leave out the unit.

Looking up CCn1c(CN2CCCC2)nnc1C1CCN(Cc2ccc(C)o2)CC1 , I see its Percent Effect listed as 13.9

Summary for this molecule, CC(C)N1CCCC2(CCN(C(=O)CCCn3ccnc3)C2)C1=O (centres undefined) : Percent Effect is 13.4

Sure, the documented Percent Effect for CC(C)N(C)CC(=O)N1CCCC(c2ccc(C(=O)O)cc2)C1 (centres undefined) is 1.71

The reported Percent Effect of the molecule COCc1cncc2c1CCN(C(=O)c1ccc(C)o1)C2 was 6.33

Looking up Cc1nccc([C@H]2C[C@@H]3CCN(S(=O)(=O)N(C)C)C[C@H]3O2)n1 , I found its Percent Effect recorded as 3.35

Further cases:
In plain terms, Cc1noc(C)c1CN(C)C(=O)NC1CCN(C2CC2)CC1 has a documented Percent Effect of -3.84

Form: molecule = Cc1nc(C2CCCN(C(=O)c3ccc(OCC4CC4)cc3)C2)no1 (centres undefined) ; Percent Effect = 7.19

Query O=C1CC(c2ccc(C(=O)O)cc2)c2ncn(-c3cccc(F)c3)c2N1 (centres undefined) yields Percent Effect of 13.3

Record summary for CNc1cc2c(nn1)CCN(C(=O)C1CCCc3ccccc31)C2 (centres undefined) : reported Percent Effect = -2.38

COCCN1CC[C@]2(CN(C(=O)c3cccs3)C[C@H]2C)C1=O yielded Percent Effect of 9.7

The molecule listed as COc1ccc(OC)c(C(C)Nc2nc3c(C)nn(C)c3c(=O)n2C)c1 (centres undefined) has a reported Percent Effect of 14.8

----------
tested on: Trypanosoma cruzi; test: Trypanosoma cruzi phosphomannomutase and mannose-1-phosphate guanylyltransferase assay; assay type: functional; set-up: scale not given: direction of the effect not stated beside the values; conditions: 10 µM
readout-type: Percent Effect (%)
Return type: number; implicit unit %.

Known value: Trypanosoma cruzi Percent Effect of the compound COc1cc(C)c(S(=O)(=O)NCc2cccnc2N(C)C)c(C)c1 equals 0

I looked up O=C(c1cscn1)N1CCC2(CCN(Cc3nccs3)C2)CC1 and its Percent Effect for Trypanosoma cruzi was 0.293

Lab entry: Trypanosoma cruzi assay, compound COC(=O)CCNC(=O)c1ccoc1CN1c2ccccc2CC1C (stereo not drawn) , Percent Effect = 1.98

Case CCCc1cc(C(=O)N2CCOC(c3nc(-c4cccs4)no3)C2)no1 (stereo not drawn) , Trypanosoma cruzi, Percent Effect recorded as 3.55

Trypanosoma cruzi assay, compound CCc1ccc(CN2CCC3(CC2)CC(N2CCN(C)CC2)CO3)cc1 (stereo not drawn) , recorded Percent Effect = -0.293

Next:
Noted Percent Effect for CN1CCN(C(=O)c2ccc(=O)n(C)c2)c2ccccc21 , tested on Trypanosoma cruzi: 3.25

Record COc1ccccc1OCCN1CCCC(c2cc(C(N)=O)[nH]n2)C1 (stereo not drawn) has Trypanosoma cruzi Percent Effect equal to -3.01

Reading of Percent Effect for COCCn1ccc(NC(=O)Nc2ccc(C(N)=O)c(F)c2)n1 with Trypanosoma cruzi: -3.41

Considering O=C(CSc1ccc(F)c(F)c1)NS(=O)(=O)c1ccc2c(c1)OCCO2 , its Percent Effect with Trypanosoma cruzi was recorded as 0.282

Query O=C(Nc1cccnc1)[C@H]1C[C@@H]2CN(C(=O)NC3CCCC3)C[C@H]1O2 on Trypanosoma cruzi; Percent Effect returned: -6.94

Simply: Cn1nc(CNC(=O)c2nc3ccccc3s2)c2c1CCOC2 , Trypanosoma cruzi, Percent Effect = 5.03

The reported Trypanosoma cruzi Percent Effect of CCOc1ccccc1CSc1nnc(CC2CCS(=O)(=O)C2)n1C (stereo not drawn) is -3.42

Entry COc1ccc(CC(=O)N2CCCCC2Cn2cccn2)cc1OC (stereo not drawn) under Trypanosoma cruzi had Percent Effect of 0.682

Query Cc1ccc(N2CCC3(CCCN(C(=O)c4cccnc4)C3)C2)nn1 (stereo not drawn) on Trypanosoma cruzi; Percent Effect returned: -3.41

// Percent Effect (Trypanosoma cruzi) for CNC(=O)CCCNCc1c(C)nn(C)c1N(C)C = 1.22

Entry Clc1ccccc1C1(c2ccnc(-c3ccncc3)n2)CCNCC1 ; assay system Trypanosoma cruzi; Percent Effect recorded at -2.26

The compound COc1ccc(C(=O)N2C[C@@H](CN3CCOCC3)[C@@H](CO)C2)c(C)c1 , when measured on Trypanosoma cruzi, yielded Percent Effect of 7.47

Query COc1cccc2c1OCC(C(=O)N1CCN(S(C)(=O)=O)CC1)C2 (stereo not drawn) on Trypanosoma cruzi; Percent Effect returned: 6.69

Bench note, Trypanosoma cruzi: Cn1cnc2c1C(COCC1CC1)CN(Cc1ccsc1)C2 (stereo not drawn) , Percent Effect reads -1.68

Percent Effect value, target or system Trypanosoma cruzi, for O=C(NCC1CC1)C1CN(C(=O)c2ccncc2)CC12CCOCC2 (stereo not drawn) : 0.296

Here CC(C)CN1C[C@@H]2CN(C(=O)[C@H]3CCCO3)C[C@@H]2C1=O was tested on Trypanosoma cruzi, and its Percent Effect came to -7.13

Recorded Percent Effect for CN1C(=O)C[C@@H]2[C@@H]1CCN2C(=O)c1ccc[nH]1 on Trypanosoma cruzi was -1.59

For Cc1nnc(N2CCCC3(CN(Cc4ccc(C)s4)CCO3)C2)o1 (stereo not drawn) on Trypanosoma cruzi, measured Percent Effect was 3.97
